The reported measurements were obtained from a melting point compilation (Tetko et al.; mined from patent text by program, amines drawn as free bases though some values may be those of a salt).

TEST_READOUT: melting point

Consider the molecule shown here: N#CC(C(=O)NC1CCC1)C(=O)C1CC1 (stereo not given) What is its recorded melting point? 110 to 111 °C

Consider the molecule shown here: CCCN1C(=O)C2(c3ccccc3)CC(c3ccc(N)cc3)(C2)C1=O What is its recorded melting point? 144 to 145 °C

Consider the molecule shown here: NC(=O)C(CCc1cc(Cl)ccc1N1CCCCC1)c1ccc(C(=O)O)cc1 (stereo not given) What is its recorded melting point? 192 to 195 °C

Consider the molecule shown here: CC(=O)OC[C@H]1CCn2c(c(C3=C(c4cn(C)c5ccccc45)C(=O)NC3=O)c3ccccc32)C1 What is its recorded melting point? 238 to 241 °C

Consider the molecule shown here: CC(=O)Oc1cc(C(=O)O)cc(C(=O)O)c1 What is its recorded melting point? 240 °C

Consider the molecule shown here: O=C(OCC1CO1)c1c(Br)c(Br)c(C(=O)OCC2CO2)c(Br)c1Br (stereo not given) What is its recorded melting point? 161 °C

Consider the molecule shown here: O=C(CCCc1ccccc1)N(O)Cc1ccccc1 What is its recorded melting point? 72 to 74 °C

Consider the molecule shown here: OCc1cnc2c(Cl)cccc2c1O What is its recorded melting point? > 300 °C

Consider the molecule shown here: O=C1NN(C(=O)Nc2ccc(OCc3ccccc3)cc2)C(c2ccccc2)C1c1ccccc1 (stereo not given) What is its recorded melting point? 127 to 130 °C

Consider the molecule shown here: Cc1cccc(-c2ccc(-c3cnn(Cc4ccc([N+](=O)[O-])cc4)c(=O)c3-c3ccc(F)cc3)cc2)c1S(=O)(=O)O What is its recorded melting point? 183 to 184 °C
